Catalogue of inhibition readings, one per entry.
- Tgt: Hexose transporter 1 (Plasmodium falciparum) (UniProt O97467)
- Method: ST_JUDE_LEISH: Cytotoxicity at 2uM final concentration against transgenic Leishmania Mexicana promastigotes LmPfHT that are glucose transport deficient and complemented with the Plasmodium falciparum hexose transporter. Activity is measured by DNA content using SYBR green in vitro
- Type: functional

- Compound: "CCC(C)c1ccc(O)c(NC(=O)c2cncc(Br)c2)c1 (configuration not stated)"
  inhibition [%]: 0.04
- Compound: "O=C(NNC(=O)c1ccc(CCN2CCC(c3nc(COCC(F)(F)F)c(-c4ccc(F)cc4)o3)CC2)cc1)Nc1ccc(Oc2ccccc2)cc1"
  inhibition [%]: -0.56
- Compound: "COc1ccc(N2CCN(CCCCNC(=O)c3ccc(NC(=O)c4ccc(Cl)cc4)cc3)CC2)c(C)c1"
  inhibition [%]: 8.02
- Compound: "CC[C@H]1CN(Cc2ccccc2Br)CC[C@H]1CCCc1ccnc2ccc(O)cc12"
  inhibition [%]: 5.03
- Compound: "O=C(c1ccccc1)N1CCC(CN2CCOC(c3ccccc3)(c3ccccc3)C2)CC1"
  inhibition [%]: 3.92
- Compound: "CCNc1cc(-c2cccc(OC)c2)nc(Nc2ccc(F)cc2)n1"
  inhibition [%]: 7.1
- Compound: "Cc1ccc(CN2CCCN(Cc3cccc(NC(=O)c4ccc(-c5ccccc5)cc4)c3)CC2)cc1C"
  inhibition [%]: 2.98
- Compound: "C=CC[C@H](C[C@H](O)[C@H](Cc1ccccc1)NC(=O)c1ccc(-c2cccnn2)cc1)C(=O)NC1CCCCC1"
  inhibition [%]: -0.85
- Compound: "CN1CCC(N2CCN(CCOc3cc(NC(=O)/C=C/c4ccccc4Cl)ccc3Br)CC2)CC1"
  inhibition [%]: 2.87
- Compound: "Cn1ccnc1Sc1ncccc1[N+](=O)[O-]"
  inhibition [%]: 0.92
- Compound: "O=C(/C=C/c1ccc(Cl)c(Cl)c1)N1CCC(CN2CCC(c3nc4ccccc4n3CCCO)CC2)CC1"
  inhibition [%]: 4.22
- Compound: "COc1ccccc1CCCON1C(=N)N=C(N)NC1(C)C"
  inhibition [%]: 5.03

---

- Tgt: Glucose transporter (Leishmania mexicana)
- Method: ST_JUDE_LEISH: Cytotoxicity at 2uM final concentration against transgenic Leishmania Mexicana promastigotes LmGT2 that are glucose transport deficient and complemented with the L. Mexicana glucose transporter 2. Activity is measured by DNA content using SYBR green in vitro
- Format: functional

- Molecule: "CCC(Nc1noc(-c2c(-c3ccccc3)noc2C)n1)c1ccccc1 (centres undefined)"
  Unit descriptor: "%"
  inhibition: 1.54
- Molecule: "Cc1ccc(O)cc1Nc1ccnc2ccc(-c3cccc(CN(C)C)c3)cc12"
  Unit descriptor: "%"
  inhibition: 0.73
- Molecule: "CCCC(=O)Nc1ccc(OCCCCN(Cc2ccccc2C(F)(F)F)c2ccc(C(F)(F)F)c(C#N)c2)cc1"
  Unit descriptor: "%"
  inhibition: 5.58
- Molecule: "O=C(NCc1ccccc1)NC1CCN(c2ccnc3cc(Cl)ccc23)C1 (centres undefined)"
  Unit descriptor: "%"
  inhibition: 0.94

---

- Tgt: Hexose transporter 1 (Plasmodium falciparum) (UniProt O97467)
- Method: ST_JUDE_LEISH: Cytotoxicity at 2uM final concentration against transgenic Leishmania Mexicana promastigotes LmPfHT that are glucose transport deficient and complemented with the Plasmodium falciparum hexose transporter. Activity is measured by DNA content using SYBR green in vitro
- Format: functional
Form field: inhibition (one value per entry).

- Compound: "CCCCOC(=O)c1ccc(Nc2cc(C)nc3ccc(OC)cc23)cc1"
  inhibition, %: 12.5
- Compound: "CN(CCN)Cc1ccc(-c2ccc(-c3nc4cc(C(F)(F)F)ccc4[nH]3)s2)cc1"
  inhibition, %: 14.8
- Compound: "O=C(NC1CCCC1)c1cc2c(=O)n3ccccc3nc2[nH]/c1=N/CCc1ccccc1"
  inhibition, %: 8.49
- Compound: "COc1ccc2c(NN=Cc3ccccn3)ccnc2c1"
  inhibition, %: 11.8
- Compound: "CS(=O)(=O)CCNCc1cccc(-c2ccc3c(Nc4ccc(Oc5cccnc5)cc4)ccnc3c2)c1"
  inhibition, %: -1.49
- Compound: "Cc1nc(-c2cccc3c(NC(=O)Nc4ccc5nccc(N6CCN(C)CC6)c5c4)cccc23)no1"
  inhibition, %: 4.25
- Compound: "O=C(Cc1c[nH]cn1)Nc1ccc(-c2cccc(-c3nc4cc(C(F)(F)F)ccc4[nH]3)c2)cc1"
  inhibition, %: 0.42
- Compound: "O=C(/C=C/c1ccc(Cl)cc1)NCCCCCN1CCCN(C(=O)Nc2ccc(Cl)c(C(F)(F)F)c2)CC1"
  inhibition, %: 2.68
- Compound: "CCc1nc(N)nc(N)c1-c1ccc(F)c(F)c1"
  inhibition, %: 5.22
- Compound: "O=C(Nc1ccc(N2CCN(Cc3ccccc3)CC2)cc1)c1cccs1"
  inhibition, %: 0.83
- Compound: "CC(C)Cn1cc2c(ccc3nc(N)nc(N)c32)n1"
  inhibition, %: 0.94
- Compound: "CC(Oc1ccc(Cl)cc1)C(=O)N(C)C1CCN(CCCCCNC(=O)/C=C/c2ccc(Cl)c(Cl)c2)CC1 (stereo not given)"
  inhibition, %: 3.1
- Compound: "COc1cc2nccc(Nc3ccc4c(cnn4Cc4cccc(F)c4)c3)c2cc1OC"
  inhibition, %: 4.66
- Compound: "CN(Cc1ccccc1)C1CCCN(c2cc(NC(=O)c3ccc(F)cc3)ccn2)C1 (stereo not given)"
  inhibition, %: -2.04
- Compound: "Cc1cc(CNCCCCCCNCc2cccc([N+](=O)[O-])c2)ccc1O"
  inhibition, %: 9.56

---

- Tgt: Glucose transporter (Leishmania mexicana)
- Method: ST_JUDE_LEISH: Cytotoxicity at 2uM final concentration against transgenic Leishmania Mexicana promastigotes LmGT2 that are glucose transport deficient and complemented with the L. Mexicana glucose transporter 2. Activity is measured by DNA content using SYBR green in vitro
- Format: functional

- Smiles record: "Cc1cc(Nc2cccc(C(F)(F)F)c2)nc(NCc2ccccc2)n1"
  Unit descriptor: "%"
  inhibition: 10.1
- Smiles record: "CCOC(=O)c1c(CN(CC)CC)n(-c2ccccc2)c2cc(Br)c(O)cc12"
  Unit descriptor: "%"
  inhibition: 1.76
- Smiles record: "CCNc1cc(C)nc(Nc2ccc(NC(=O)c3ccccc3Br)cc2)n1"
  Unit descriptor: "%"
  inhibition: 4.36
- Smiles record: "CCCCCCNC(=N)c1ccc2[nH]c(-c3ccc(O)cc3)nc2c1"
  Unit descriptor: "%"
  inhibition: 3.78

---

- Tgt: Hexose transporter 1 (Plasmodium falciparum) (UniProt O97467)
- Method: ST_JUDE_LEISH: Cytotoxicity at 2uM final concentration against transgenic Leishmania Mexicana promastigotes LmPfHT that are glucose transport deficient and complemented with the Plasmodium falciparum hexose transporter. Activity is measured by DNA content using SYBR green in vitro
- Format: functional
Readout label: inhibition

- Compound: "CN1CCC(c2ccc(NC(=O)c3ccc(-c4cccc(C(F)(F)F)c4)o3)cc2)CC1"
  Result: "1.69%"
- Compound: "CC(=O)Nc1[nH]c(-c2ccccc2)nc1C(N)=O"
  Result: "-0.89%"
- Compound: "CC(=O)N1c2ccccc2C(C)=CC1(C)C"
  Result: "-0.45%"
- Compound: "COc1cc(C)nc2ccc(NC(=O)Nc3cccc4ccccc34)cc12"
  Result: "5.33%"
- Compound: "CC(O)C1CCCCN1C(=O)c1cccc(-c2ccc(-c3nc4ccccc4[nH]3)s2)c1 (stereo unspecified)"
  Result: "5.96%"
- Compound: "O=C(Cc1ccccc1)NC(Nc1ccc([N+](=O)[O-])cc1)C(Cl)(Cl)Cl (stereo unspecified)"
  Result: "1.43%"
- Compound: "CC1(C)N=C(N)N=C(N)N1c1cc(Cl)c(Cl)c(Cl)c1"
  Result: "0.23%"
- Compound: "CC(Oc1ccc(C(=O)c2ccc(F)cc2)cc1)C(=O)N1CCc2ccccc21 (stereo unspecified)"
  Result: "-0.96%"
- Compound: "CN(C)c1cccc2c1nc(-c1ccco1)n2CCNCc1ccccc1"
  Result: "1.58%"
- Compound: "c1cc(CN2CCC(CCN3CCCCC3)CC2)cc(-c2cccc(-c3nc4ccccc4[nH]3)c2)c1"
  Result: "2.55%"
- Compound: "Cc1cccc2nc(-c3ccc(-c4ccc(CN5CCCC(N)C5)cc4)cc3)[nH]c12 (stereo unspecified)"
  Result: "11%"
- Compound: "COc1ccc2nccc([C@@H](O)CN3CCC(NCCOc4cc(C(F)(F)F)ccc4F)CC3)c2c1"
  Result: "33.3%"
- Compound: "Cc1cccc(CN2CCCN(Cc3ccc(C(=O)Nc4ccc(C)c(F)c4)cc3)CC2)c1"
  Result: "4.06%"
- Compound: "Nc1nc(N)c2c(ccc3c2ncn3Cc2ccccc2)n1"
  Result: "13.7%"
- Compound: "CCCN(CC)CCOC(=O)c1ccccc1"
  Result: "7.44%"
- Compound: "O=C(NC1CCCCC1)N(Cc1cccc(-c2cccc(CNC3CCCC3)c2)c1)C1CCN(Cc2ccccc2)CC1"
  Result: "6.23%"
- Compound: "CNC(=O)c1cnc(Nc2ccc(OCC(O)CN(C)C)cc2)nc1Nc1cccc(OC(C)C)c1 (stereo unspecified)"
  Result: "-0.45%"
- Compound: "CNC(=O)c1nc(-c2ccccc2)[nH]c1NC(C)=O"
  Result: "3.44%"
- Compound: "Cc1cc(=NN=Cc2ccc(Cl)cc2)c2ccc(F)cc2[nH]1"
  Result: "2.71%"
- Compound: "O=[N+]([O-])c1ccc(C=NNc2nc(Nc3ccccc3)nc(Nc3ccccc3)n2)o1"
  Result: "18.9%"
- Compound: "Cc1nc(C)c(-c2ccc(Cl)cc2)c(O)c1I"
  Result: "2.05%"
